- Test system: NCI-H522 lung
- assay_details: NCI tumour cell line growth inhibition, 48 h
Documented GI50 across a set of compounds
measured_endpoint: GI50

# compound, measured_endpoint, reported_result
rows = [
    ("Cc1ccc(C(=O)CC(Sc2cccc(Cl)c2Cl)c2ccc(Cl)cc2)cc1C (centres undefined)", "GI50", "26.2 µM"),
    ("C=C(C)[C@@H]1CC[C@@]2(C(=O)O)CC[C@]3(C)C(CCC4[C@@]5(C)CCC(OS(=O)(=O)c6ccccc6)C(C)(C)C5CC[C@]43C)C12 (some centres undefined)", "GI50", "2.36 µM"),
    ("C=CC(=O)N1CCN(c2ncnc3c(F)c(-c4c(O)cccc4F)c(Cl)cc23)CC1", "GI50", "15.6 µM"),
    ("CCn1c(-c2nonc2N)nc2ccc(F)cc21", "GI50", "> 25 µM"),
]

Taken from PubChem BioAssay (NCI).
